- measurement-target: OR51I2 (Homo sapiens, UniProt Q9H344)
- Construct: expressed in transfected cells; host or cells: HEK293
- Sequence (Q9H344 whole entry): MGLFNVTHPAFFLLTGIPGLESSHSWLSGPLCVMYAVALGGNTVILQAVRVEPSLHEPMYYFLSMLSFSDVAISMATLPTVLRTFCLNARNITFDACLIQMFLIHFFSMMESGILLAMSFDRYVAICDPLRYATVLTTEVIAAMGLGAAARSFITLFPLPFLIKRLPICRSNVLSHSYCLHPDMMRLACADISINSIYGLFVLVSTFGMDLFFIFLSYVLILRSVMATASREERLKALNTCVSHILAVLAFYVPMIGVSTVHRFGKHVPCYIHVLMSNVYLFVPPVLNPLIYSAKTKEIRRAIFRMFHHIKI
- experiment: Luciferase reporter gene assay, OR51I2 expressed in HEK293 cells
- Type: cell-based
- test-settings: response to hexanoic acid; test substance added together with hexanoic acid; HEK293
- Protocol: Cloning of human olfactory receptors was performed based on the sequence information registered in GenBank, through PCR with human genomic DNA female (G1521: Promega) as a template. […] The inhibition ratios of the receptor response to test substances were calculated as follows. […] By the following calculation formula, the inhibitory activity of the test substance to receptor response was calculated based on the increment of the emission value (X−Y) caused by stimulation of hexanoic acid alone. […]
Inhibition ratio of OR51I2 response values, listed per item

| molecule | Inhibition ratio of OR51I2 response |
| --- | --- |
| CC(C)Cc1ccc(CC(C)C=O)cc1 (stereo not shown) | 2 (Inhibition ratio: 20% to 50%) |
| CC(C=O)Cc1ccc(C(C)C)cc1 (stereo not shown) | 2 (Inhibition ratio: 20% to 50%) |
| COC(C)(C)CCCC(C)CC=O (stereo not shown) | 1 (Inhibition ratio: 50% or higher) |
| CC(C)c1ccc(C=O)cc1 | 2 (Inhibition ratio: 20% to 50%) |
| CC(C)C1CCC(C=O)CC1 (stereo not shown) | 2 (Inhibition ratio: 20% to 50%) |
| CC(C=O)Cc1ccc(C(C)(C)C)cc1 (stereo not drawn) [Lilial, p-tert-butyl-α-methylhydrocinnamaldehyde] | 2 (Inhibition ratio: 20% to 50%) |
| CC(CC=O)CCCC(C)(C)O (stereo not shown) [Hydroxycitronellal, 3,7-dimethyl-7-hydroxyoctanal] | 2 (Inhibition ratio: 20% to 50%) |
| CC(C)(C)c1ccc(CCC=O)cc1 | 1 (Inhibition ratio: 50% or higher) |
| CC(C)C1CCC(C)(CO)CC1 (stereo not shown) | 2 (Inhibition ratio: 20% to 50%) |
| CC(C)c1cccc(C(C)CC=O)c1 (stereo not shown) [Florhydral, 3-(3-isopropylphenyl)-butyraldehyde] | 1 (Inhibition ratio: 50% or higher) |
